measurement notes: pH-potentiometry of ligand (protonation constants)
Format: physicochemical
run conditions: 0.1 M NaCl, 310 K, KLHn = [HnL]/[H][Hn-1L]
assay endpoint: log KLH

# compound, value
data = [
    ("O=C(O)CN(CC(=O)O)[C@H]1CCCC[C@@H]1N(CC(=O)O)Cc1ccccn1", 10.16),
    ("O=C(O)CN(Cc1c[nH]cn1)C1CCCC[C@@H]1N(CC(=O)O)Cc1ccccn1 (mixture of isomers)", 10.62),
    ("O=C(O)CN(CCN(CC(=O)O)CC(=O)O)CC(=O)O", 10.19),
    ("O=C(O)CN(CC(=O)O)C1CCCCC1N(CC(=O)O)CC(=O)O (stereo not shown)", 12.3),
]

----------
measurement notes: pH-potentiometry of ligand (protonation constants)
Assay type: physicochemical
run conditions: 0.1 M NaCl, 310 K
assay endpoint: log KLH3

# molecule, value
rows = [
    ("O=C(O)CN(CC(=O)O)C1CCCCC1N(CC(=O)O)CC(=O)O (stereo not shown)", 3.49),
    ("O=C(O)CN(CC(=O)O)[C@H]1CCCC[C@@H]1N(CC(=O)O)Cc1ccccn1", 3.13),
    ("O=C(O)CN(Cc1c[nH]cn1)C1CCCC[C@@H]1N(CC(=O)O)Cc1ccccn1 (mixture of isomers)", 4.23),
    ("O=C(O)CN(CCN(CC(=O)O)CC(=O)O)CC(=O)O", 2.69),
]

----------
log KLH2 reference
measurement notes: pH-potentiometry of ligand (protonation constants)
Format: physicochemical
run conditions: 0.1 M NaCl, 310 K

# molecule, log KLH2
rows = [
    ("O=C(O)CN(CC(=O)O)C1CCCCC1N(CC(=O)O)CC(=O)O (stereo not shown) [CyDTA]", 6.12),
    ("O=C(O)CN(CC(=O)O)[C@H]1CCCC[C@@H]1N(CC(=O)O)Cc1ccccn1 [PyC3A]", 6.39),
    ("O=C(O)CN(Cc1c[nH]cn1)C1CCCC[C@@H]1N(CC(=O)O)Cc1ccccn1 (mixture of isomers) [PyCy2AI]", 6.44),
    ("O=C(O)CN(CCN(CC(=O)O)CC(=O)O)CC(=O)O [EDTA, Ethylenediaminetetraacetic acid]", 6.13),
]
